Test system: 596521-263-R-J1-PDC complex spheroid growth;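 also: spheroids exposed to compounds for 7 days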
Assay: Anticancer human tumor 596521-263-R-J1-PDC patient-derived soft tissue sarcoma cell line growth inhibition [Asc]
Details: second compound 0.316 µM; first compound 0.0316 µM; active compounds read low
reportedMetric: viability, T/C (%)
Answers are plain numbers, in %.

Some solved entries appear below for comparison.
// query I'm curious: which viability, T/C was measured for C=CC(=O)N1CCN(c2nc(=O)n(-c3c(C)ccnc3C(C)C)c3nc(-c4c(O)cccc4F)c(F)cc23)C(C)C1 (stereo unspecified) + Cc1c(S(C)(=O)=O)c(-c2cc(F)cc(N3CCN(c4ccc(NS(=O)(=O)c5ccc(NC(CCN6CCC(C(=O)OCCCP(=O)(O)O)CC6)CSc6ccccc6)c(S(=O)(=O)C(F)(F)F)c5)cc4)CC3)c2)c(-c2ccc(Cl)cc2)n1C(C)C tested on 596521-263-R-J1-PDC complex spheroid growth?;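 also: spheroids exposed to compounds for 7 days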
// result 83.7

// query I'm curious: which viability, T/C was measured for O=C(c1ccc(F)c(F)c1Nc1ccc(I)cc1F)N1CC(O)([C@@H]2CCCCN2)C1 + CNC(C)C(=O)NC1CN(S(=O)(=O)c2cccc(S(=O)(=O)N3CCC4CCC(C(=O)NC(c5ccccc5)c5ccccc5)N4C(=O)C(NC(=O)C(C)NC)C3)c2)CCC2CCC(C(=O)NC(c3ccccc3)c3ccccc3)N2C1=O tested on 596521-263-R-J1-PDC complex spheroid growth?;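 also: spheroids exposed to compounds for 7 days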
// result 77.4

// query I'm curious: which viability, T/C was measured for C#Cc1c(F)ccc2cc(O)cc(-c3ncc4c(N5CC6CCC(C5)N6)nc(OCC56CCCN5CC(F)C6)nc4c3F)c12 (stereo unspecified) + CNC(C)C(=O)NC1CN(S(=O)(=O)c2cccc(S(=O)(=O)N3CCC4CCC(C(=O)NC(c5ccccc5)c5ccccc5)N4C(=O)C(NC(=O)C(C)NC)C3)c2)CCC2CCC(C(=O)NC(c3ccccc3)c3ccccc3)N2C1=O tested on 596521-263-R-J1-PDC complex spheroid growth?;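 also: spheroids exposed to compounds for 7 days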
// result 80.3

// query I'm curious: which viability, T/C was measured for C#Cc1c(F)ccc2cc(O)cc(-c3ncc4c(N5CC6CCC(C5)N6)nc(OCC56CCCN5CC(F)C6)nc4c3F)c12 (stereo unspecified) + Cc1c(S(C)(=O)=O)c(-c2cc(F)cc(N3CCN(c4ccc(NS(=O)(=O)c5ccc(NC(CCN6CCC(C(=O)OCCCP(=O)(O)O)CC6)CSc6ccccc6)c(S(=O)(=O)C(F)(F)F)c5)cc4)CC3)c2)c(-c2ccc(Cl)cc2)n1C(C)C tested on 596521-263-R-J1-PDC complex spheroid growth?;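 also: spheroids exposed to compounds for 7 days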
// result 82.2

// query I'm curious: which viability, T/C was measured for CNC(C)C(=O)NC1CN(S(=O)(=O)c2cccc(S(=O)(=O)N3CCC4CCC(C(=O)NC(c5ccccc5)c5ccccc5)N4C(=O)C(NC(=O)C(C)NC)C3)c2)CCC2CCC(C(=O)NC(c3ccccc3)c3ccccc3)N2C1=O (stereo unspecified) + Cc1c(S(C)(=O)=O)c(-c2cc(F)cc(N3CCN(c4ccc(NS(=O)(=O)c5ccc(NC(CCN6CCC(C(=O)OCCCP(=O)(O)O)CC6)CSc6ccccc6)c(S(=O)(=O)C(F)(F)F)c5)cc4)CC3)c2)c(-c2ccc(Cl)cc2)n1C(C)C tested on 596521-263-R-J1-PDC complex spheroid growth?;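 also: spheroids exposed to compounds for 7 days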
// result 70.2

Now, please, on to the next molecule.
// query I'm curious: which viability, T/C was measured for C=C(F)C(=O)N1CCN(c2nc(OCC3CCCN3C)nc3c2CCN(c2cccc4cccc(Cl)c24)C3)CC1CC#N (stereo unspecified) + Cc1c(S(C)(=O)=O)c(-c2cc(F)cc(N3CCN(c4ccc(NS(=O)(=O)c5ccc(NC(CCN6CCC(C(=O)OCCCP(=O)(O)O)CC6)CSc6ccccc6)c(S(=O)(=O)C(F)(F)F)c5)cc4)CC3)c2)c(-c2ccc(Cl)cc2)n1C(C)C tested on 596521-263-R-J1-PDC complex spheroid growth?;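 also: spheroids exposed to compounds for 7 days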
// result 104
